target: UniProt P08183; test: in vitro; details: dog, MDCK-MDR1, pH 7.4
Sequence (P08183 whole entry): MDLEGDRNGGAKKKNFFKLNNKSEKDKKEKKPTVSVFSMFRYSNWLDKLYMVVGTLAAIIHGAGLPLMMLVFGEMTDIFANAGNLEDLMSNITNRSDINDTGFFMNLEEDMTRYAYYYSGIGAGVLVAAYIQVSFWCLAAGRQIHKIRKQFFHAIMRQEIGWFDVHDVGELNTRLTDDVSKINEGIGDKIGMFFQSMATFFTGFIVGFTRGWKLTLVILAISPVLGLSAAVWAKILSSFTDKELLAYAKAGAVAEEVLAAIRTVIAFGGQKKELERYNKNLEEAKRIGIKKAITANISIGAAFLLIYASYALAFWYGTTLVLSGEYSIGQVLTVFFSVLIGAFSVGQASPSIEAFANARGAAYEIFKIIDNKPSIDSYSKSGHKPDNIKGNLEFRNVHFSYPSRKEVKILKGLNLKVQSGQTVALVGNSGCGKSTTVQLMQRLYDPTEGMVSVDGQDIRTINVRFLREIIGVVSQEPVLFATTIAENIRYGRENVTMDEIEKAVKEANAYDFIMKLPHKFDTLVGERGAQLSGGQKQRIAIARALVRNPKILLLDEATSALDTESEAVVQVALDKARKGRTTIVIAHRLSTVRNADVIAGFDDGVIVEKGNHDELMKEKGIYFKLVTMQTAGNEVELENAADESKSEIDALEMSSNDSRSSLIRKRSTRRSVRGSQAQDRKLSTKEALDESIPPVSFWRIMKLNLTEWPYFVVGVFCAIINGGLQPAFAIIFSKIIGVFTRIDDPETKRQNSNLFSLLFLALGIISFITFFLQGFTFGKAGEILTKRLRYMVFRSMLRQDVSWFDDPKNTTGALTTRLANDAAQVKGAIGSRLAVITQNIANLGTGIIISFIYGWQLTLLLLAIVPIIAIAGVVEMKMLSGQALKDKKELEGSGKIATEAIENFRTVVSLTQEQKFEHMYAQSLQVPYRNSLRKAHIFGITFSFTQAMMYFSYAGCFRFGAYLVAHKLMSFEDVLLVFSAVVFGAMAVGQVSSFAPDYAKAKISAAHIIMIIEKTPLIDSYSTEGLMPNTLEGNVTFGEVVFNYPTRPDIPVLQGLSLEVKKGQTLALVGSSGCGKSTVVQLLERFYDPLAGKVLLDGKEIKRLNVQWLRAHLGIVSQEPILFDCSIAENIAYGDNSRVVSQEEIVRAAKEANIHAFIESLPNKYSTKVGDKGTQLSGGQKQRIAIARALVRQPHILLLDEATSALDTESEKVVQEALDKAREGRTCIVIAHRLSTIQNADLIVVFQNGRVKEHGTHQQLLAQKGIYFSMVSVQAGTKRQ
For each entry below, report its Papp A→B at 1 h value.

The cases that follow already have their Papp A→B at 1 h on record.
COMPOUND	Papp A→B at 1 h
CC1=C(C)C(=O)O[C@@H]([C@@H](C)[C@H]2CC[C@H]3[C@@H]4[C@@H]5O[C@@H]5[C@@]5(O)CC=CC(=O)[C@]5(C)[C@H]4CC[C@]23C)C1 [Withanolide B]	12 ×10⁻⁶ cm/s
O=C(O)[C@H]1O[C@@H](Oc2cc(O)c3c(=O)cc(-c4ccc(O)c(O)c4)oc3c2)[C@H](O)[C@@H](O)[C@@H]1O [Luteolin-7-glucoronide, Luteolin 7-glucuronide]	0.205 ×10⁻⁶ cm/s
CC1=C(C=O)C(C)(C)CC=C1	90 ×10⁻⁶ cm/s

Exam item: Reported Papp A→B at 1 h for CC1=C(C)C(=O)O[C@@H]([C@](C)(O)[C@H]2CC[C@H]3[C@@H]4[C@@H]5O[C@@H]5[C@@]5(O)CC=CC(=O)[C@]5(C)[C@H]4CC[C@]23C)C1 [Withanolide A] : what is it?
Marked response: 3.65 ×10⁻⁶ cm/s
